Data provenance: the supplement of paper PMC10567573

B1: SMTNL2 (parent)
chain: AFTMAENLANCERLIEVEDMMVMG

Variants of: B1
experimental_protocol: protein stability index of a GFP-peptide fusion (GPS, HEK-293T) (PSI 1-6); higher = more stable;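 also: lentivirally expressed fusions sorted by FACS into six bins by GFP to DsRed ratio, PSI derived from sequencing read proportions per bin multiplied by bin number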
condition_label: c terminus: a fixed tail appended
protein stability index values by entry

{"mutations": "E16C", "protein stability index": 1.9}
{"mutations": "A9L", "protein stability index": 2.06}
{"mutations": "A5W", "protein stability index": 1.81}
{"mutations": "M21F", "protein stability index": 2.56}
{"mutations": "R13Q", "protein stability index": 3.17}
{"mutations": "E12T", "protein stability index": 2.06}
{"mutations": "G24Q", "protein stability index": 2.71}
{"mutations": "N7G", "protein stability index": 2.59}
{"mutations": "F2L", "protein stability index": 2.27}
{"mutations": "A9R", "protein stability index": 2.31}
{"mutations": "L8S", "protein stability index": 4.28}
{"mutations": "M21S", "protein stability index": 2.65}
{"mutations": "L14C", "protein stability index": 3.33}
{"mutations": "L14M", "protein stability index": 2.34}
{"mutations": "M21V", "protein stability index": 2.18}
{"mutations": "E6N", "protein stability index": 1.96}
{"mutations": "E16G", "protein stability index": 2.62}
{"mutations": "C11H", "protein stability index": 3.63}
{"mutations": "M4N", "protein stability index": 3.76}
{"mutations": "N10C", "protein stability index": 2}
{"mutations": "E18D", "protein stability index": 2.9}
{"mutations": "N10S", "protein stability index": 2.42}
{"mutations": "T3M", "protein stability index": 1.96}
{"mutations": "N7S", "protein stability index": 2.45}
{"mutations": "V22N", "protein stability index": 2.44}
{"mutations": "V17N", "protein stability index": 2.07}
{"mutations": "M20A", "protein stability index": 2.42}
{"mutations": "A1I", "protein stability index": 1.76}
{"mutations": "E12C", "protein stability index": 1.55}
{"mutations": "E18H", "protein stability index": 2.85}
{"mutations": "F2A", "protein stability index": 3.7}
{"mutations": "V22D", "protein stability index": 2.55}
{"mutations": "V22R", "protein stability index": 2.46}
{"mutations": "M20E", "protein stability index": 4.02}
{"mutations": "N7A", "protein stability index": 2.83}
{"mutations": "R13V", "protein stability index": 1.49}
{"mutations": "M20H", "protein stability index": 2.98}
{"mutations": "V22L", "protein stability index": 2.18}
{"mutations": "N7D", "protein stability index": 3.11}
{"mutations": "M21E", "protein stability index": 4.11}
{"mutations": "C11S", "protein stability index": 2.37}
